test system: NCI-H460 lung; test: NCI tumour cell line growth inhibition, 48 h; in the data active means GI50 below about 0.43 µM; inactive means the rest
Outcome codes: T (active), F (inactive)

COMPOUND	QUALITATIVE_LABEL
COc1ccc(-c2cncn2-c2ccc(-c3nc4cc(OC)c(OC)c(OC)c4s3)cc2)cc1N	F
NC1=C(/C(N)=N/O)C(c2ccccc2)c2ccc3ccccc3c2O1 (stereo not given)	T
O=C(Oc1c(Cl)c(Cl)c(Cl)c(Cl)c1Cl)C1CCCN1C(=O)OCc1ccccc1 (stereo not given)	F
COc1ccc(-n2nc(C(=O)c3ccccc3)c3nn4c(=O)cc(-c5ccccc5)nc4nc32)cc1	F
COc1ccccc1N1CCN(CC(O)Cn2c(=O)c3c(OC)nc(C)cc3c(=O)n2-c2ccccc2)CC1 (stereo not given)	F
Cc1ccc(Nn2c(SCC(=O)Nc3nc(-c4ccccc4)cs3)nc(C)c2C)cc1	F
Cc1cc(O)cc(-c2nn(C)cc2-c2cc(N3CCOCC3)nc(-c3cccnc3)n2)c1	F
CC(=O)OCCC/C(=C/c1cc2ccccc2c2ccccc12)[N+](=O)[O-]	F
Cc1nc2sc(C(=O)Nc3cccc(Cl)c3C)c(N)c2cc1C(O)c1ccccc1 (stereo not given)	T
COc1cc(-c2cn(-c3ccc(F)cc3)c(=O)[nH]2)cc(OC)c1OC	F

---

system: HL-60(TB) leukemia; assay: NCI tumour cell line growth inhibition, 48 h
# reported TGI; entries follow

COMPOUND	TGI
Cc1ccc([N+](=O)[O-])cc1S(=O)(=O)Nc1ccc(C2=NN(C(=O)c3ccccc3)C(c3ccccc3O)C2)cc1 (centres undefined)	69.4 µM
COc1cc(/C=C/C(=O)N[C@@H]2C(=O)N3[C@@H]2SC(C)(C)[C@@H]3C(=O)O)ccc1O	> 100 µM
Clc1ccc(C2=Cc3nc2c(-c2ccccc2)c2ccc([nH]2)c(-c2ccccc2)c2nc(c(-c4ccccc4)c4ccc([nH]4)c3-c3ccccc3)C=C2)cc1	> 62.5 µM
CCSc1nc(N)c(C#N)c(-c2ccc(OC)c(OC)c2)c1C#N	> 50 µM

---

tested on: U251 CNS
Outcome codes: active, inactive

COMPOUND	QUALITATIVE_LABEL
Cc1ccc(Nn2c(SCC(=O)Nc3nc(-c4ccccc4)cs3)nc(C)c2C)cc1	inactive
COc1ccccc1CNC(=O)/C=C/c1ccc(O)c(O)c1	inactive
CC1=CC[C@@H]2C(=O)C=CC=C[C@H]12.[C-]#[O+].[C-]#[O+].[C-]#[O+].[Fe]	inactive
CCCCc1n(Cc2ccc3ccccc3n2)cc[n+]1Cc1ccc2ccccc2c1	inactive
NC(N)=N/N=C/c1c(-c2cccs2)nc2n1CCS2	inactive
COc1ccc(/C=N/C2=NNC(C)(c3ccccc3O)N2C(Cc2c[nH]c3ccccc23)C(=O)O)cc1 (configuration not stated)	inactive
COc1ccc(-c2cncn2-c2ccc(-c3nc4cc(OC)c(OC)c(OC)c4s3)cc2)cc1N	inactive
O=C1c2ccccc2-c2c1c1ccc([N+](=O)[O-])cc1c(=O)n2CCN1CCOCC1	inactive
CC(=O)OCCC/C(=C/c1cc2ccccc2c2ccccc12)[N+](=O)[O-]	inactive
COc1ncc(-c2ccc3ncnc(Nc4cccc(Cl)c4)c3c2)cc1NS(C)(=O)=O	inactive
O=C1c2ccccc2-c2c1c1ccc3ccccc3c1n2-c1ccccc1	inactive
CN1CCN(c2ccc(NC(=O)c3cncnc3Nc3ccc4c(ccn4Cc4cccc(F)c4)c3)cc2)CC1	inactive
COc1ccc(OC)c(-c2nc3sc(C)cn3c2/C=C2\C(=O)N(C)c3ccccc32)c1	inactive
O=C(Oc1c(Cl)c(Cl)c(Cl)c(Cl)c1Cl)C1CCCN1C(=O)OCc1ccccc1 (configuration not stated)	inactive
Cc1nc2sc(C(=O)Nc3cccc(Cl)c3C)c(N)c2cc1C(O)c1ccccc1 (configuration not stated)	active
Nc1n[nH]c2cc(F)c([C@@H]3Nc4c(F)cc5[nH]ncc5c4[C@H]4C5CCC(C5)[C@@H]34)cc12 (some centres not stated)	active
CN1CCC(n2cnc(-c3ccc(F)cc3)c2-c2ccnc(Nc3ccccc3)n2)CC1	inactive

---

tested on: BT-549 breast; experiment: NCI tumour cell line growth inhibition, 48 h
# reported TGI; entries follow
OBSERVABLE: TGI

SMILES_INPUT	OBSERVED
O=C(Cn1c2c(c3ccccc31)CCCC2)N1CCOCC1	> 100 µM
CCOC(=O)c1cccc(N=Nc2ncc(/C=C/C(=O)OC)[nH]2)c1	> 100 µM
Cc1cc(=O)[nH]c(Sc2ccc([N+](=O)[O-])cc2[N+](=O)[O-])n1	26.8 µM
COc1cc2cc[n+](C)c(Cc3ccc(Oc4cc(Cc5c6cc(OC)c(OC)cc6cc[n+]5C)ccc4OC)cc3)c2cc1OC	> 100 µM
Clc1cccc(/C=c2\nc(-c3ccccc3)n3c2nc2ccccc23)c1	> 100 µM

---

test system: M19-MEL melanoma; test: NCI tumour cell line growth inhibition, 48 h
# reported TGI; entries follow

COMPOUND	RELATION_SYMBOL	TGI [µM]
OCC(O)C(OC1OC(CO)C(O)C(O)C1O)c1nn(-c2ccc(Cl)cc2)c2nc3cc(Cl)c(Cl)cc3nc12 (centres undefined)	>	100
COc1ccc(/C=N/NC(=O)CSc2nc(-c3ccccc3)c(-c3ccccc3)[nH]2)cc1OC	=	35.3
CCOc1cc2cnc3c4cc(OC)c(OC)cc4ccc3c2cc1OC	>	100
C=C(CN(C)C)C(=O)c1ccccc1Cl	=	33.4

---

system: COLO 205 colon; assay: NCI tumour cell line growth inhibition, 48 h

COMPOUND	TGI
COc1cc2c3c(n(CCCN=[N+]=[N-])c(=O)c2cc1OC)-c1ccc(NC(C)=O)cc1C3=O	> 50 µM
COc1cc(S(=O)(=O)Nc2ccc(-c3csc(/N=C\c4cccc(Oc5ccccc5)c4)n3)cc2)ccc1Cl	> 100 µM
COc1cc(/C=C2\CC3C4CC[C@H]5C[C@@H](O)CC[C@]5(C)C4CC[C@]3(C)\C2=N\O)cc(OC)c1OC (stereo not given in full)	29.4 µM
CC(C)=CC1(C)/C(=N\O)C(C)(CC(C)C)C(=O)N1O (stereo not given)	> 100 µM
CCOC(=O)C1=C(Nc2cccc3ccccc23)OCC1=O	> 100 µM

---

test system: MALME-3M melanoma; assay: NCI tumour cell line growth inhibition, 48 h
OBSERVABLE: TGI

COMPOUND	OBSERVABLE	OBSERVED
Cc1ccc(C2SCc3nc4ccccc4n32)cc1 (configuration not stated)	TGI	73.6 µM
CCOC(=O)c1cccc(N=Nc2ncc(/C=C/C(=O)OC)[nH]2)c1	TGI	70.3 µM
C=C(C)[C@@H]1CC[C@]2(COC(=O)c3ccccc3C(=O)O)CC[C@]3(C)[C@H](CC[C@@H]4[C@@]5(C)CC[C@H](OC(=O)c6ccccc6C(=O)O)C(C)(C)[C@@H]5CC[C@]43C)[C@@H]12	TGI	> 100 µM
COc1cc(S(=O)(=O)Nc2ccc(-c3csc(/N=C\c4cccc(Oc5ccccc5)c4)n3)cc2)ccc1Cl	TGI	> 100 µM
CC(C)(C)COS(=O)OCC(C)(C)C	TGI	> 100 µM
CCOC(=O)/C=C(/C(=O)OCC)n1cc(C)c(=O)[nH]c1=O	TGI	4.48 µM
NC1=CC(=O)C(=O)c2ccccc21	TGI	25.7 µM
CN(C)C(=S)/N=C(\N)N(C)C	TGI	> 100 µM
COc1ccc(OC)c2c1ccc1c(C)c3ccccc3c(C)c12	TGI	> 100 µM
COc1ccc(OC)c(-c2nc3sc(C)cn3c2/C=C2\C(=O)N(C)c3ccccc32)c1	TGI	70.1 µM
CCOC(=O)COc1cc(-c2ccccc2)nc2cc(F)ccc12	TGI	> 100 µM
C=CCC(O)c1cc(OC)ccc1OC (configuration not stated)	TGI	> 100 µM
COc1ccc2c3c1OC1C4(CCC5C(C2)N(CC2CC2)CCC351)OCCO4 (configuration not stated)	TGI	> 100 µM
CNc1cc(Cl)ccc1C(=O)N1CCC[C@H]1CO	TGI	> 100 µM
c1ccc(C[N+]23C(CC[C@H]2c2ccccc2)CC[C@H]3c2ccccc2)cc1 (some centres not stated)	TGI	> 100 µM
CCCCc1n(Cc2ccc3ccccc3n2)cc[n+]1Cc1ccc2ccccc2c1	TGI	2.21 µM
CNC(=O)NCCCCC(NC(=O)OCc1ccccc1)C(=O)OCc1ccccc1 (configuration not stated)	TGI	47 µM
c1cc2nnc1SCCSCCCSCCS2	TGI	> 100 µM
Cc1ccc([N+](=O)[O-])cc1NC(=O)/C(CC(=O)c1sc(C(N)=S)nc1C)=N\N	TGI	> 100 µM
COc1ccccc1CNC(=O)/C=C/c1ccc(O)c(O)c1	TGI	> 100 µM
[N-]=[N+]=Nc1nnc(CCCCc2nnc(N=[N+]=[N-])o2)o1	TGI	> 100 µM
COC(=O)C(Br)(C(=O)OC)C(Br)C(Br)C(Br)c1ccccc1 (configuration not stated)	TGI	4.46 µM
